Each entry below carries its reported pKi.
measured_on: first (BD1: amino acids K57-E168) bromodomain of BRD4 (Homo sapiens, UniProt O60885)
Construct: His-tagged first (BD1: amino acids K57-E168)
test_description: TR-FRET bromodomain binding assay, BRD4 BD1
details: TR-FRET assay protocol (A-G, compound concentration range); Ki calculated from IC50, probe Kd and probe concentration; read-out: TR-FRET Binding Ki: BRD4 (BDI_K57-E168)
Keep in mind that pKi stands for -log10 of concentration in molar terms.

Use these answered entries as a reference point.
CN1CCN(c2ncc(-c3cc(=O)n(C)nc3-c3ccccc3Oc3ccccc3)cn2)CC1	6.17
CN(C)CCNC(=O)c1cccc(-c2cc(=O)n(C)nc2-c2ccccc2Oc2ccccc2)c1	5.88
CCS(=O)(=O)Nc1ccc(OCC2CC2)c(-c2ccc(=O)n(C)c2)c1C	5.87
CCOC(=O)C1CCN(c2cc(=O)n(C)nc2-c2ccccc2Oc2ccccc2)C1 (centres unmarked)	5.18
CCS(=O)(=O)Nc1ccc(Oc2ccc(F)cc2F)c(-c2cn(C)c(=O)cc2OCC2CC2)c1	8.18
Cn1cc(-c2cc(S(N)(=O)=O)ccc2Oc2ccccc2)ccc1=O	6.66

Now, please, on to the next compound.
(Q) Using known records, supply pKi for CCOc1cc(=O)n(C)cc1-c1cc(NS(=O)(=O)c2ccc(OC(F)(F)F)cc2)ccc1Oc1ccc(F)cc1F
(A) 6.50

###

measured_on: first (BD1: amino acids K57-E168) bromodomain of BRD4 (Homo sapiens, UniProt O60885)
Construct: His-tagged first (BD1: amino acids K57-E168)
test_description: TR-FRET bromodomain binding assay, BRD4 BD1
details: TR-FRET assay protocol (A-G, compound concentration range); Ki calculated from IC50, probe Kd and probe concentration; read-out: TR-FRET Binding Ki: BRD4 (BDI_K57-E168)
quantity_name: pKi
To interpret pKi, take it as minus log10 of a concentration measured in moles per litre.

Here's what some known entries look like.
CCOc1cc(=O)n(C)cc1-c1cc(NS(=O)(=O)C[C@]23CC[C@H](CC2=O)C3(C)C)ccc1Oc1ccc(F)cc1F	6.70
CCN(CC)C(=O)c1cc(F)cc(-c2cc(=O)n(C)nc2-c2ccccc2Oc2ccccc2)c1	5.27

API: the following record is the query input.
(Q) Quote pKi with test system first (BD1: amino acids K57-E168) bromodomain of BRD4 (Homo sapiens, UniProt O60885) for COc1cc(=O)n(C)nc1-c1cc(NS(=O)(=O)CCC(F)(F)F)ccc1Oc1ccccc1
(A) 6.15

###

measured_on: second (BD2: amino acids E352-E168) bromodomain of BRD4 (Homo sapiens, UniProt O60885)
Construct: protocol
test_description: TR-FRET bromodomain binding assay, BRD4 BD2
details: TR-FRET assay protocol (A-G, compound concentration range); Ki calculated from IC50, probe Kd and probe concentration; read-out: TR-FRET Binding Ki: BRD4 (BDII_E352-M457)
Note to self: use 1.0 only for Ki readings below 400 nM; a reading exactly at 400 nM still gets 0.0.

Some solved cases for reference:
CN(C)C(=O)c1cncc(-c2cc(=O)n(C)nc2-c2ccccc2Oc2ccccc2)c1	0.0
CC(=O)Nc1cncc(-c2cc(=O)n(C)nc2-c2ccccc2Oc2ccccc2)c1	0.0
CCS(=O)(=O)Nc1ccc(Oc2ccc(F)cc2F)c(-c2cn(C)c(=O)cc2OCC2CC2)c1	1.0
CCS(=O)(=O)Nc1ccc(Oc2ccc(F)cc2F)c(-c2c[nH]c(=O)c(C)c2)c1	1.0
CCCOc1cc(=O)n(C)cc1-c1cc(NS(=O)(=O)CC)ccc1Oc1ccc(F)cc1F	1.0

(Q) Please let me know if Cn1cnc(S(=O)(=O)Nc2ccc(Oc3ccccc3)c(-c3ccc(=O)n(C)c3)c2)c1 shows Ki below 400 nM.
(A) 0.0

(Q) Is Ki of COc1ccc(-c2cc(=O)n(C)nc2-c2ccccc2Oc2ccccc2)c(OC)n1 strictly below 400 nM?
(A) 0.0

###

Attribute: pKi
measured_on: second (BD2: amino acids E352-E168) bromodomain of BRD4 (Homo sapiens, UniProt O60885)
Construct: protocol
test_description: TR-FRET bromodomain binding assay, BRD4 BD2
details: TR-FRET assay protocol (A-G, compound concentration range); Ki calculated from IC50, probe Kd and probe concentration; read-out: TR-FRET Binding Ki: BRD4 (BDII_E352-M457)
API: returns pKi as number; meaning -log10 of concentration in mol/L.

These solved cases illustrate the format of a correct answer.
COc1cc(=O)n(C)nc1-c1cc(NS(=O)(=O)Cc2ccccc2)ccc1Oc1ccccc1	7.10
CCS(=O)(=O)Nc1ccc(Oc2ccc(F)cc2F)c(-c2cn(C)c(=O)cc2OC2CC3(CNC3)C2)c1	7.76
Cn1cc(-c2cc(NS(C)(=O)=O)ccc2Oc2ccccc2C(F)(F)F)ccc1=O	7.09
CC(C)Oc1ncccc1-c1cc(=O)n(C)nc1-c1ccccc1Oc1ccccc1	4.77
Cn1cc(-c2cc(NS(C)(=O)=O)ccc2Oc2ccc(F)cc2F)cc(Cl)c1=O	7.00

(Q) Give the reported pKi for this compound. CCS(=O)(=O)Nc1ccc(Oc2ccc(F)cc2F)c(-c2cn(C)c(=O)cc2NC2CC2)c1
(A) 8.56

(Q) Specify reported pKi for the compound shown: CCS(=O)(=O)Nc1ccc(Oc2ccc(F)cc2F)c(-c2cn(C)c(=O)cc2OCC2CCN(C)C2)c1 (centres unmarked)
(A) 7.00

(Q) Using the record for CCOC(=O)C1CCN(c2cc(=O)n(C)nc2-c2ccccc2Oc2ccccc2)C1 (centres unmarked) , state its measured pKi.
(A) 6.13

###

measured_on: first (BD1: amino acids K57-E168) bromodomain of BRD4 (Homo sapiens)
Construct: His-tagged first (BD1: amino acids K57-E168)
test_description: TR-FRET bromodomain binding assay, BRD4 BD1
details: TR-FRET assay protocol (A-G, compound concentration range); Ki calculated from IC50, probe Kd and probe concentration; read-out: TR-FRET Binding Ki: BRD4 (BDI_K57-E168)
quantity_name: Ki (µM)
Give the quantity in µM, number only.

Example entries and their recorded answers appear below.
Cn1nc(-c2ccccc2Oc2ccccc2)c(-c2cccc(C(=O)N3CCOCC3)c2)cc1=O [Example 175]	2.95
CC(C)Oc1ccc(-c2cc(=O)n(C)nc2-c2ccccc2Oc2ccccc2)cn1 [Example 123]	7.26
Cn1nc(-c2ccccc2Oc2ccccc2)c(-c2ccc(S(N)(=O)=O)cc2)cc1=O [Example 112]	0.138

The record that follows has no Ki shown yet.
(Q) Name the recorded Ki of the compound listed here: Cc1ccc(S(=O)(=O)Nc2ccc(Oc3ccccc3)c(-c3ccc(=O)n(C)n3)c2)cc1 [Example 11]
(A) 4.04

###

Item-by-item account of pKi
measured_on: first (BD1: amino acids K57-E168) bromodomain of BRD4 (Homo sapiens, UniProt O60885)
Construct: His-tagged first (BD1: amino acids K57-E168)
test_description: TR-FRET bromodomain binding assay, BRD4 BD1
details: TR-FRET assay protocol (D, E or G) per compound; Ki calculated from IC50, probe Kd and probe concentration; read-out: TR-FRET Binding Ki: BRD4 (BDI_K57-E168)
Reminder that pKi means the negative base-10 logarithm of the concentration expressed in mol/L.

Sample answers from the record:
CCOc1cc(=O)n(C)cc1-c1cc(NS(=O)(=O)CC)ccc1OC1CCN(c2ccc(C(F)(F)F)cc2)CC1	6.23
CCOc1cc(=O)n(C)cc1-c1cc(S(=O)(=O)N2CCc3ccccc32)ccc1Oc1ccc(F)cc1F	7.60
CCOc1cc(=O)n(C)cc1-c1cc(NS(=O)(=O)CC)ccc1Oc1ccc(F)c(F)c1	7.70

Moving on to the next compound.
(Q) Determine from records and report pKi for CCOc1cc(=O)n(C)cc1-c1cc(N)ccc1Oc1ccc(F)cc1F
(A) 5.81

###

measured_on: first (BD1: amino acids K57-E168) bromodomain of BRD4 (Homo sapiens)
Construct: His-tagged first (BD1: amino acids K57-E168)
test_description: TR-FRET bromodomain binding assay, BRD4 BD1
details: TR-FRET assay protocol (A-G, compound concentration range); Ki calculated from IC50, probe Kd and probe concentration; read-out: TR-FRET Binding Ki: BRD4 (BDI_K57-E168)
Threshold 200 nM. Ki below it: 1. Ki at it or above: -1.

Answered cases to consult:
CCOc1cc(=O)n(C)cc1-c1cc(NS(=O)(=O)c2ccc(C(C)C)cc2)ccc1Oc1ccc(F)cc1F [Example 347]	1
Cn1nc(-c2ccccc2Oc2ccccc2)c(-c2cccc(CC#N)c2)cc1=O [Example 193]	1
CC(C)CNC(=O)c1ccc(-c2cc(=O)n(C)nc2-c2ccccc2Oc2ccccc2)cc1 [Example 170]	-1
Cn1nc(-c2ccccc2Oc2ccccc2)c(-c2cncc(NCc3ccccc3)c2)cc1=O [Example 138]	-1

(Q) Determine if COc1cc(=O)n(C)nc1-c1cc(NS(=O)(=O)C2CCCC2)ccc1Oc1ccccc1 [Example 26] shows Ki strictly lower than 200 nM.
(A) -1

(Q) A record lists Cc1cc(Oc2ccccc2)c(-c2ccc(=O)n(C)c2)cc1NS(C)(=O)=O [Example 257] . Is its Ki below 200 nM?
(A) 1

(Q) Hello, I'm reviewing records and need to know if Ki of CCS(=O)(=O)Nc1ccc(Oc2ccc(F)cc2F)c(-c2cn(C)c(=O)cc2OC2CC3(CNC3)C2)c1 [Example 326] is below 200 nM. Could you check?
(A) 1

(Q) Is it true that Ki reported for Cn1nc(-c2ccccc2Oc2ccccc2)c(-c2ccc(C(=O)NC(C)(C)C)cc2)cc1=O [Example 168] is less than 200 nM?
(A) -1
